study-target: HaloTag-ING2 PHD (mouse Ing2 200-280)
test-name: peptide microarray binding signal (635 nm), min-max normalized on array (fraction of array maximum); higher = stronger binding
condition-context: peptide region: Unmod H2A variant; binder concentration: 10 nM
Record form. Attribute: peptide microarray binding signal. Fill in for each entry.
Output spec: single numeric token, no unit.

Ask | Consider the binder AGLQFPVGRIHRL [Unmod H2A variant A G L Q F P V G R I H R L] and give its measured peptide microarray binding signal.
Reply | 0.0334

Ask | Would you mind doing YLTAEILELAGNA [Unmod H2A variant Y L T A E I L E L A G N A] as well?
Reply | 0.00203

Ask | Would you mind doing AGLQFPVGRVHRL [Unmod H2A variant A G L Q F P V G R V H R L] as well?
Reply | 0.0252

Ask | Would you mind doing KGNYSERVGAGAP [Unmod H2A variant K G N Y S E R V G A G A P] as well?
Reply | 0.00692

Ask | Would you mind doing GVLPNIQAVLLPK [Unmod H2A variant G V L P N I Q A V L L P K] as well?
Reply | 0.0142

Ask | Would you mind doing DNKKTRIIPRHLQ [Unmod H2A variant D N K K T R I I P R H L Q] as well?
Reply | 0.00245

Ask | Would you mind doing ILELAGNAARDNK [Unmod H2A variant I L E L A G N A A R D N K] as well?
Reply | 0.0242

Ask | Would you mind doing VTIAQGGVLPNIQ [Unmod H2A variant V T I A Q G G V L P N I Q] as well?
Reply | 0.0169
